Examples of compounds with documented melting point follow.

Sample records with melting point:
compound	melting point
CSc1cc(-c2ccc(C(F)(F)F)cc2)ccc1C#N	128 to 129 °C
COC[C@@H]1CCCN1S(=O)(=O)c1ccc2c(c1)C(=O)C1=NCC(C)(C)CN12	161 to 164 °C
Cc1cc(C)cc(COC(=O)C(Cc2c[nH]c3ccccc23)NS(=O)(=O)c2ccccc2)c1 (stereo not given)	114 to 116 °C
COC(=O)COc1ccc(OC/C=C(/c2ccc(I)cc2)c2ccc3oc(C)cc3c2)cc1C	121 to 128 °C
Cc1ccsc1C1CC(=O)c2c(C)ccnc2C1 (stereo not given)	104 to 105 °C
CC(CO)(CO)Nc1ccc([N+](=O)[O-])cc1	120 °C

Can you share its melting point? I mean this compound: O=C(O)Cc1ccc2c3c(ccc2c1)OCC3 181 to 183 °C

Reported melting point for COc1ccc(-c2nc3cccc(C(N)=O)c3[nH]2)cc1 : what is it? 261 to 263 °C

Look up melting point for this compound: CN(C)c1ccc2nc(-c3cccc4ccccc34)[nH]c(=O)c2c1 254 to 255 °C
